# Study System: UniProt P52333
# Sequence (P52333 1-1124): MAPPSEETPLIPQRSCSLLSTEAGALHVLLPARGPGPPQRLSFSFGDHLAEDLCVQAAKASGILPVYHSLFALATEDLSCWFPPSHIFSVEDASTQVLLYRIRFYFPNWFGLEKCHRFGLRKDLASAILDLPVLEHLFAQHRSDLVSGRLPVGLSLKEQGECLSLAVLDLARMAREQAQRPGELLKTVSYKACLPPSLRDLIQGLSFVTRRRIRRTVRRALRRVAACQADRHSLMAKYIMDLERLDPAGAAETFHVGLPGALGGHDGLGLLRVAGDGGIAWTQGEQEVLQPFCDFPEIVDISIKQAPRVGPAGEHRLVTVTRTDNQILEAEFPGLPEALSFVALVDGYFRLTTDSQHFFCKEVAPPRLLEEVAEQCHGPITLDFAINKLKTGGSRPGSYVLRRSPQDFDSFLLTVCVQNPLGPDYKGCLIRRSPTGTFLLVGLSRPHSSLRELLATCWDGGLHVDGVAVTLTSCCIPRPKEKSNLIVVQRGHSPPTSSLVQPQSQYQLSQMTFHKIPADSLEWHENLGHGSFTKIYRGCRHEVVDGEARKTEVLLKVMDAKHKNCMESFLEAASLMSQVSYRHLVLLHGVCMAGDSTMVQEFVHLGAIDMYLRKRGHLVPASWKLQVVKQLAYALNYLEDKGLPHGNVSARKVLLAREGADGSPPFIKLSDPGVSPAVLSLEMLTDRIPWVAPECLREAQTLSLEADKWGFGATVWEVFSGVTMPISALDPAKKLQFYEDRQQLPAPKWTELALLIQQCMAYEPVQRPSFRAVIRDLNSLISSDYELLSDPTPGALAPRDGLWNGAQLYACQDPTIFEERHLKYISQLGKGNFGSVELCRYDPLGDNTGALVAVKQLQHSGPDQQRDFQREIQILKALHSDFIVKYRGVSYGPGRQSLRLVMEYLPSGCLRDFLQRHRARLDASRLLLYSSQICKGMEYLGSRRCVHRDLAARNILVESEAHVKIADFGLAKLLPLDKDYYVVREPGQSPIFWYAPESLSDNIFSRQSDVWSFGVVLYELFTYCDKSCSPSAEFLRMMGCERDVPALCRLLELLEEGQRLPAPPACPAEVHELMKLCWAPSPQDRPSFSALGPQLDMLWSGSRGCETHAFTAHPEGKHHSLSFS
# Experiment Description: JAK3 inhibition assay (33P incorporation into poly(Glu)4Tyr)
# Assay type: biochemical
# Measurement Context: enzyme inhibition, Table 5
pKi: −log10 of the molar value.
Observation Type: pKi

Quick note, pKi for `CN1CCN(Cc2cccc(-c3ccnc4[nH]ccc34)c2)CC1` landed at 5.30 to 6.30

Quick note, pKi for `COCc1cccc(-c2ccnc3[nH]ccc23)c1` landed at > 6.30

Quick note, pKi for `CC(C)(CO)CNc1cccc(-c2ccnc3[nH]ccc23)n1` landed at < 5.30

Quick note, pKi for `CC(C)c1cccc(-c2ccnc3[nH]ccc23)c1` landed at > 6.30

Others:
Quick note, pKi for `FC(F)(F)c1cccc(-c2ccnc3[nH]ccc23)c1` landed at 5.30 to 6.30

Quick note, pKi for CC1CCCN(c2cccc(-c3ccnc4[nH]ccc34)n2)C1 (centres unmarked) landed at 5.30 to 6.30

Quick note, pKi for `O=C(N[C@H](CO)c1cccc(Cl)c1)c1cc(-c2ccnc3[nH]ccc23)c[nH]1` landed at 5.30 to 6.30

Quick note, pKi for `Cn1cc(-c2ccnc3[nH]ccc23)cn1` landed at > 6.30

Quick note, pKi for `CN(C)c1cccc(-c2ccnc3[nH]ccc23)c1` landed at > 6.30

Quick note, pKi for `CC(=O)Nc1cccc(-c2ccnc3[nH]ccc23)c1` landed at 5.30 to 6.30

Quick note, pKi for `c1cc(-c2ccnc3[nH]ccc23)nc(N2CCc3ccccc3C2)c1` landed at 5.30 to 6.30
